Item-by-item account of apparent Kd
Test system: MS2 coat protein
method.notes: apparent Kd, MS2 coat protein; higher = weaker binding; RNA-MaP array
study.conditions: ligand present: flavin mononucleotide; designed as: ON switch for flavin mononucleotide
Respond with the figure and its unit, in that order.

Query: Any idea what apparent Kd was measured for AGCUCACAUGAGGAUCACCCAUGUCAAUUGUCAUCCUAUUGUAGAAGGCCGACACUGAUAUUAACGGAGGAUAUACGAGACAAU ?
Reply: 7.85 nM

Query: Item GACCGGACAUCCUAGGAUAUUUAUACUGAUACAUGAGGAUCACCCAUGUUUGGAAACAUCGUACGAAAGAAGGAGGAGACCUCUGA has what recorded apparent Kd?
Reply: 10.8 nM

Query: Give its apparent Kd value. Item: UACAUGAGGAUCACCCAUGUCAAACCGUUCUAGGACUAGGUAAGAAGGGUCAUCCUACAAUGUUGACAGGAUAUUACGUAGCUG
Reply: 71.3 nM

Query: Requested field: apparent Kd. Item: GAACGGAGAGAAGGAUAUGGCAUAUUGCCUCACAUGAGGAUCACCCAUGUCAAGACAAAGCGAUCCCAGAAGGUCUCACAACAU
Reply: 26.8 nM

Query: Param item = AAACACAACCAGAAGGCCAAAACAUGAGGAUCACCCAUGUAGAUAAGAAGAGUAAGCACUGUCAUGGAGGAUAUGGGUCAAAAC ; retrieve measured apparent Kd.
Reply: 7.12 nM

---

System: MS2 coat protein
method.notes: apparent Kd, MS2 coat protein; higher = weaker binding; RNA-MaP array; FMN 200 µM where present
study.conditions: designed as: OFF switch for flavin mononucleotide; no ligand
// apparent Kd lookup, one value per entry
Answer in nM, number only, no unit symbol.

Would you please look over these solved cases?
sequence	apparent Kd / nM
GUCAGCUCGUGAGGAUAUACAACACAGCUUCGGCAGUGUAUUAAGAUCACAUGAGGAUCACCCAUGUAGAAGGCACGAGCUGAU	13.1
ACAAAUUAGUGAGGAUAUGCAUAAUUUAUAACUGCAGAAGGCACAAACCUCAAGACAUGAGGAUCACCCAUGUGGAAUAUAGAU	73
GGUGUGAGGCAGGAUAUGCUAUAUGUUAGUAAUGCAGAAGGGUCUACAUGAGGAUCACCCAUGUGUGCGGUUGA	90.5
GGUGGACAUGAGGAUCACCCAUGUGAGGAUAUCGGCUGGUACGUGUUGGCUGGCAUCUCGAGAAGGCACAUCGU	56.2
UCCUGGCGAGGAUAUACAAAGAUUUUUUCGUUUUGUUACGAACAUGAGGAUCACCCAUGUAGAAGGUGCUGCUG	204

Query: Query (sequence): ACUGCCACAGGAUAUACGAAACUCUUGGGUUCCGCCGUGUGACAUGAGGAUCACCCAUGUAGAAGGGUGGCUUA ; field requested: apparent Kd
Reply: 606

Query: Returns the measured apparent Kd for the input sequence. Input: GGAUCGAGUGUGAGGAUAUGCUGGUCCUUGGAUCAGCAGAAGGCACAUGAGGAUCACCCAUGUGAAGACGGUCC
Reply: 32.3

---

Tested on: MS2 coat protein
method.notes: apparent Kd, MS2 coat protein; higher = weaker binding; RNA-MaP array; theophylline 2 mM where present
study.conditions: ligand present: theophylline; designed as: ON switch for theophylline
endpoint.name: apparent Kd (nM)
The answer is to be given in nM; state only the numeric part.

Record excerpt, results attached:
sequence	endpoint.name	units.text	reported.value
UAAAUAAUCUGGGUGUAGGUAAUAACAGAUACCAGCCAGAUAACUGGCCCUUGGCAGCUGAUAACAUGAGGAUCACCCAUGUAAA	apparent Kd	nM	224
AGGAAACAACAUGAGGAUCACCCAUGUGAUACCAGUAUCAAAAGAUACCCUUGGCAGCACACAUGACAUGAGGAUCACCCAUGUA	apparent Kd	nM	84.4
UCUACAUGAGGAUCACCCAUGUGCCAUGAUACCAGACAUGAAAAUGUCCCUUGGCAGCAUGGGUAGCGCAUCCGAAAGGAUGCGU	apparent Kd	nM	657

Query: Reported apparent Kd, sequence UUAAAUGUGACGGAUACCAGCGUGUUGUAGAACAUGAGGAUCACCCAUGUAGUGAUCAAGCGCCCUUGGCAGCUGGUAUGUUUGA : ____
Reply: 300

Query: I would be grateful if you could share the reported apparent Kd for UGUAACAUGAGGAUCACCCAUGUGAGUGAUACCAGAUAAGUAGUAGUCCCUUGGCAGCAUAUUGGGCGAGUGUAUAGUCUAUACG .
Reply: 179

Query: Given CUCCGAGGCUAUACUAUACGCCUUUGUGAUACCAGAAUAAAUAUAUUCCCUUGGCAGCAUCACAUGAGGAUCACCCAUGUGCCAU , state its recorded apparent Kd.
Reply: 18

Query: Find the recorded apparent Kd belonging to AUAACAUGAGGAUCACCCAUGUAAGGUGAUACCAGACGAAGUAAAGUCCCUUGGCAGCACAAGUAAAGUUACGAAUAUUGAUAGA and report it.
Reply: 47.3

---

System: MS2 coat protein
method.notes: apparent Kd, MS2 coat protein; higher = weaker binding; RNA-MaP array; FMN 200 µM where present
study.conditions: ligand present: flavin mononucleotide; designed as: ON switch for flavin mononucleotide
Classification scheme (apparent Kd): LOW = under 20 nM, MEDIUM = from 20 nM up to 30 nM, HIGH = 30 nM and over

sequence	label
UGUUGUAUUACAGGAUAUCUAGUAAUUUUAUUUAGAGAAGGGUAUUCACAUGAGGAUCACCCAUGUAUAUACGAGGAAGUUGUG	HIGH
UUUUCUCGUGAGAAGGACAUGAGGAUCACCCAUGUAGGAUAUCGUGGGAGACAGGAAUUGAAUCUUCGGAUUCAAUUCCAGUCU	LOW
UUGAAAUUGUAAGGAUAUACUCUGUGAUGAAGAGUAGAAGGUACUUACAUGAGGAUCACCCAUGUUUAACGAGAUACUAAUCGU	LOW
ACCUAUUUGGAGAAGGCCAGAAUGAUUAGGCUAAGGCGUGAUCCUGCAUGGAGGAUAUCCAAAACAUGAGGAUCACCCAUGUUC	HIGH
AAAAAAAAGGGUGAGGAUAUCGAAAAAAAAACAUGAGGAUCACCCAUGUGAAAAAAAAAAAAAUGCGAGAAGGCACUAAAAAAAAA	HIGH
UUGGACGUCGUAGGAUAUGUAGGAUAUUACUACAUGAGGAUCACCCAUGUUGACAUGGAAGAAGGACAGAAGGACGAUGUCCAU	LOW

Query: Given UUAUUUAUGCAAGGAUAUCAAUUAUAUAGACGUCCUACAUGAGGAUCACCCAUGUUUAGUUUUUUUGAGAAGGUGCAUUGUCGG , name the class its apparent Kd places it in.
Reply: HIGH

Query: For the record AGGUAACAUGAGGAUCACCCAUGUACCAAUAAUGCAGGAUAUCGACACGAAAAUACGUGUCGAGAAGGGCAUGAAA , report the class its apparent Kd corresponds to.
Reply: LOW

Query: Returns: class label. Input: UUCGAGUAGCAAGGAUAUCUUAUUUAGAUUUUAAGAGAAGGUGCUUCACAGCUACAUGAGGAUCACCCAUGUCUUUCUUCUUAU
Reply: MEDIUM

Query: Category of UAAUCUCAGAUAGGAUAUAUAGGAUGAUUUAAGACUGAACAUGAGGAUCACCCAUGUGAUUAUCUGUAGAAGGAUCAAUGACCC :
Reply: HIGH

Query: # bin lookup: classify CUCGGCGCACAGAAGGAUCGGUACAUGAGGAUCACCCAUGUAAGCAAAGAUAGGAUAUGUGGAGCUUACAGGGAAAUUGAACAA by its apparent Kd
Reply: LOW

Query: Band assignment needed for GUAGCUAUCGGAGGAUAUUCAUGAUACAUGAGGAUCACCCAUGUUAAAGUGGGAGAAGGCCGAUAGCUACAAGAGCGAAAGCUC please.
Reply: LOW

Query: Class label required: GGAGACCUCACAGGAUAUGCUGGACUUUGUCCAGCAGAAGGGUGAAAACAUGAGGAUCACCCAUGUAUGGUCUCCAAAUUUAAC
Reply: LOW

Query: Determine which band this sequence sits in: GACAAUCUAUCUGAGGAUAUCAUGAAAAAAACAUGAGGAUCACCCAUGUGCAGGAAAACUGCAUAUGAGAAGGCAGAUAGAUUGA
Reply: MEDIUM

Query: Input AGGAAACAUGAGGAUCACCCAUGUAAAAAAGUGGGAGGAUAUACUAGAAGAAACAAAAUAGUAGAAGGCCUAAAAA ; output its category
Reply: MEDIUM

Query: Where would GGCGGAGACGUUAACAUGAGGAUCACCCAUGUCGAAGGAGAUGAGGAUAUCGCAUACGAUGUAUGUGAGAAGGCAUGGUCUGCC land among the classes by reported apparent Kd?
Reply: LOW

Query: # bin lookup: classify GUACCUUAUGAGAAGGCGAUCAUUAAACAUGAUCGAGGAUAUCAUGAAAACAUGAGGAUCACCCAUGUAUGGGUAUUAUGGUAC by its apparent Kd
Reply: LOW

Query: Bin? UGGGUGGUAUGAGGAUAUGCGCGCGAAACGCGCGCAGAAGGCAUGUCAAUAGACAUGAGGAUCACCCAUGUAUUAUCCAUCCAA
Reply: MEDIUM
